test: NCI Yeast Anticancer Drug Screen. Data for the mgt1 strain (AID 153); conditions: S. cerevisiae mgt1 mutant growth inhibition; at 3.7 µM; stronger effect = higher value
Compounds without any hit were thinned out: in the full panel of roughly 79,000, 15% have a hit.
Each item that follows carries a reported growth inhibition.
Your answer is read as %, so omit the unit and give the number.

COC(=O)NC1C(C)OC(OC2C/C=C(/C)C3C=CC4C(OC5CC(OC6CC(O)C(OC7CC(O)C(OC)C(C)O7)C(C)O6)C(O)C(C)O5)C(C)CC(C)C4C3(C)/C(O)=C3\C(=O)OC4(CC(C)C(CO)=CC4/C=C\2C)C3=O)CC1(C)[N+](=O)[O-] (centres undefined)	2
Cc1cccc(C(C)(C)C)c1NC(=O)C(C#N)C1=C(Cl)C(=O)c2ccccc2C1=O (centres undefined)	32
O=[n+]1c2ccccc2n([O-])c2cc(Br)ccc21	5

Complete the entry with growth inhibition for `Cc1ccc(S/C(=C\C(=O)O)c2ccccc2)cc1`
-5

Complete the entry with growth inhibition for `Cc1cc2cc3cc(C)c(N)cc3nc2cc1N`
-60

Complete the entry with growth inhibition for `O=c1ccc2ccccc2c2ccccc12`
21
